- System: Balamuthia mandrillaris (ATCC PRA-291) trophozoites, axenic culture
- measurement.description: primary screen, percent inhibition; higher = more effect of the substance;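 further: 0% = vehicle wells and 100% = lysate wells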
- applied.conditions: 20 µM
- Method: Screening of a clinically approved library of compounds, compiled by the Small Molecule Discovery Center (SMDC) at the UCSF, was completed at 20 µM in 0.2% DMSO. […] The luminescence was measured with a Promega GloMax-Multi+ plate reader at 2, 4, and 8 h after CTG addition. […] The B-score, representing a plate-based statistical approach for correcting row, column, and edge effects, was also calculated for each compound in the library (75).
Among all 2,000 compounds or so, about 15 (0.8%) showed an effect of 50% or more. The full list was thinned out, with strong results kept by preference.
Tag: class 1 if measured % Inhibition is not below 30%, class 0 if it is.

Query: Record "CN/C(=C\[N+](=O)[O-])NCCSCc1ccc(CN(C)C)o1" ; criterion: % Inhibition no lower than 30%. Met?
Result: class 1

Query: Record "CN/C(=C\[N+](=O)[O-])NCCSCc1csc(CN(C)C)n1" ; criterion: % Inhibition no lower than 30%. Met?
Result: class 0

Query: Record "CN/C(=C/[N+](=O)[O-])NCCSCc1ccc(CN(C)C)o1" ; criterion: % Inhibition no lower than 30%. Met?
Result: class 0

Query: Record "C[C@@H]1[C@H](O)[C@@H](C)/C=C/C=C/C=C/C=C/C=C/C=C/C=C/[C@H](O[C@@H]2O[C@H](C)[C@@H](O)[C@H](N)[C@@H]2O)C[C@@H]2O[C@](O)(C[C@@H](O)C[C@@H](O)[C@H](O)CC[C@@H](O)C[C@@H](O)CC(=O)O[C@H]1C)C[C@H](O)[C@H]2C(=O)O" ; criterion: % Inhibition no lower than 30%. Met?
Result: class 0

Query: Record COC(=O)C1[C@H]2C[C@H]3c4[nH]c5ccccc5c4CCN3C[C@@H]2CC[C@@H]1O (stereo partly drawn) ; criterion: % Inhibition no lower than 30%. Met?
Result: class 0

Query: Record "O=S(=O)(O)CCSSCCS(=O)(=O)O" ; criterion: % Inhibition no lower than 30%. Met?
Result: class 1
